tested-target: p-EGFR L858R (BaF3-L858R cells) (Homo sapiens, UniProt P00533, L858R)
Sequence (P00533 25-1210 L858R): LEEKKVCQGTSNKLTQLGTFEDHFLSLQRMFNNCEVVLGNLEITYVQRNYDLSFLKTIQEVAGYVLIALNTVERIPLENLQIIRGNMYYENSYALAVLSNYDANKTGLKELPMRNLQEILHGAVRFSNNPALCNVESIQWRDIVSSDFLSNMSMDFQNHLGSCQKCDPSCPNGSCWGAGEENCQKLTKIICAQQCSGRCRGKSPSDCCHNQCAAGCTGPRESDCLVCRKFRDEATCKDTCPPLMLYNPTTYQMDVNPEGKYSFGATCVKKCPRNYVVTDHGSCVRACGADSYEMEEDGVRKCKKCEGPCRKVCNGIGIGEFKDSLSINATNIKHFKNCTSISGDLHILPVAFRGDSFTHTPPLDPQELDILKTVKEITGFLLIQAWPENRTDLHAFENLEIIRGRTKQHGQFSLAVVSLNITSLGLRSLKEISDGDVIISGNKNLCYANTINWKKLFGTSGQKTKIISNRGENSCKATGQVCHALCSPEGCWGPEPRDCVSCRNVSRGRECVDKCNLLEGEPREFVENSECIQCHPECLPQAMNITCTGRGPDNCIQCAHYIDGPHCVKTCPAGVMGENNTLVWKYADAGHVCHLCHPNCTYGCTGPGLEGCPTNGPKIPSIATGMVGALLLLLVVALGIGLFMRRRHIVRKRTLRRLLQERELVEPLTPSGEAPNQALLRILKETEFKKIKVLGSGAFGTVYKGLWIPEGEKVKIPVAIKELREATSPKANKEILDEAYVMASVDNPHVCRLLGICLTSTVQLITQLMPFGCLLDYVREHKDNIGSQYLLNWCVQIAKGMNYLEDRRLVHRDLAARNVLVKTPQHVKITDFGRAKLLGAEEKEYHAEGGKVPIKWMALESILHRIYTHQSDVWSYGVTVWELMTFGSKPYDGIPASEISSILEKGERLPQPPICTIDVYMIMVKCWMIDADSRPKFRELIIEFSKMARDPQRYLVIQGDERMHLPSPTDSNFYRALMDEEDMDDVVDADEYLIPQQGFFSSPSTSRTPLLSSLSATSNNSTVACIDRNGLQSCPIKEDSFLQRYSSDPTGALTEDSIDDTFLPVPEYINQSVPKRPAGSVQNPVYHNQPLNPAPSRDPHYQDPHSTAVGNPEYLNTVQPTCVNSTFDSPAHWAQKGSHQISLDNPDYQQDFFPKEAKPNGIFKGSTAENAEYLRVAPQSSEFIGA
assay-remarks: Cell p-EGFR inhibition assay, HTRF, BaF3-L858R cells
experimental-context: 16 h treatment, pEGFR inhibition
log10(IC50) values by entry
Base-10 log of IC50, unit µM.

COC[C@@H]1CN(c2cc3c(cc2F)N/C2=N\C(=O)c4cc(C)nc(c4)-c4cnn(C)c4OC[C@H]4CCC(C4)CN23)CCN1C1CCN(c2cc(F)c([C@H]3CCC(=O)NC3=O)c(F)c2)CC1 :: -1.86

// sample COC[C@@H]1CN(c2ccc3c(c2)N2CC4CC[C@H](COc5c(cnn5C)-c5cc(cc(C)n5)C(=O)/N=C/2N3)C4)CCN1C1CN(C2CCN(c3cc(F)c([C@H]4CCC(=O)NC4=O)c(F)c3)CC2)C1 , its log10(IC50) was -2.11

// sample Cc1cc2cc(n1)-c1c(C)nn(C)c1OC[C@H]1CCC(C1)CN1/C(=N/C2=O)Nc2ccc(N3CCN([C@@H]4CCN(c5cc(F)c(C6CCC(=O)NC6=O)nc5C)C[C@@H]4F)CC3)cc21 (stereo partly shown) , its log10(IC50) was -2.51
